subject of test: UniProtKB P12931
Sequence (P12931 whole entry, species assumed): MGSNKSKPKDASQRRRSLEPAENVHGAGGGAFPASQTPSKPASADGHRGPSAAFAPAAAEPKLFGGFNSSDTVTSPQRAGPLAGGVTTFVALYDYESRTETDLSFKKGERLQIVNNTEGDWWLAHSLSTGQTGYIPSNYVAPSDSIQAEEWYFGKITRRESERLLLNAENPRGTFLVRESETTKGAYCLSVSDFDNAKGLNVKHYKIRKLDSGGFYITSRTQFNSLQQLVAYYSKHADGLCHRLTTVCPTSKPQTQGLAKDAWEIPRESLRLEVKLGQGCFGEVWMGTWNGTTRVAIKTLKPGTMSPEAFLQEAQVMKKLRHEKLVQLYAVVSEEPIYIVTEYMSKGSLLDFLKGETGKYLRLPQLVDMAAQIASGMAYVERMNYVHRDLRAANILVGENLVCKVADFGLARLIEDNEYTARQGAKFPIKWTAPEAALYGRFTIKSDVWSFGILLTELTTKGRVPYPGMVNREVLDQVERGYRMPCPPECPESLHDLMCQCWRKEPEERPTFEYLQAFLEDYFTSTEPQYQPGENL
test method notes: Src kinase inhibition (IC50)
Format: biochemical
A collection of molecules and their measured IC50

1. CC(=O)N1CCc2[nH]c3nccc(Nc4c(Cl)ccc5c4OCO5)c3c2C1 [Example 15]	11 to 100 nM

Query: Param item = O=C(c1ccccc1)N1CCc2[nH]c3nccc(Nc4c(Cl)ccc5c4OCO5)c3c2C1 [Example 67] ; retrieve measured IC50.
Reply: 101 to 1000 nM

Query: Param item = O=C(C1CCCCC1)N1CCc2[nH]c3nccc(Nc4c(Cl)ccc5c4OCO5)c3c2C1 [Example 71] ; retrieve measured IC50.
Reply: 101 to 1000 nM

Query: Param item = O=C(C1CCC1)N1CCc2[nH]c3nccc(Nc4c(Cl)ccc5c4OCO5)c3c2C1 [Example 69] ; retrieve measured IC50.
Reply: 101 to 1000 nM

Query: Param item = O=C(C1CC1)N1CCc2[nH]c3nccc(Nc4c(Cl)ccc5c4OCO5)c3c2C1 [Example 68] ; retrieve measured IC50.
Reply: 101 to 1000 nM

Query: Param item = O=C(C1CCCC1)N1CCc2[nH]c3nccc(Nc4c(Cl)ccc5c4OCO5)c3c2C1 [Example 70] ; retrieve measured IC50.
Reply: 101 to 1000 nM
